ASSAYED_TARGET: Interstitial collagenase (Homo sapiens)
Sequence (P03956 whole entry): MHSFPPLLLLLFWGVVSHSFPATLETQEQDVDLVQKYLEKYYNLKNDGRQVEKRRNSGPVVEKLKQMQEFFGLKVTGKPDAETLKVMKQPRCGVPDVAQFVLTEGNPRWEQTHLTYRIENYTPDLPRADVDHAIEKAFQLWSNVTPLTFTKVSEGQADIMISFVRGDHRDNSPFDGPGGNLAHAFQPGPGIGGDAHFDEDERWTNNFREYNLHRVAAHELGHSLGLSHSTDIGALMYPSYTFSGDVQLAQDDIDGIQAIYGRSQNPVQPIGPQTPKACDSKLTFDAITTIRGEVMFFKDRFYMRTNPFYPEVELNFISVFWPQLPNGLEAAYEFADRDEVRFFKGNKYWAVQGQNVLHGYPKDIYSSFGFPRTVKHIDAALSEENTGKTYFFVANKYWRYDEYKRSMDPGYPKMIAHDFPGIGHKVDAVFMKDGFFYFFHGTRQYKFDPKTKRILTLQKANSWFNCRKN
pIC50: −log10 of the molar value.
PROPERTY_MEASURED: pIC50

COc1ccc(S(=O)(=O)C[C@@H](C)CS)cc1 ... 5.30

---

ASSAYED_TARGET: Stromelysin-1 (Homo sapiens, UniProt P08254)
Sequence (P08254 whole entry): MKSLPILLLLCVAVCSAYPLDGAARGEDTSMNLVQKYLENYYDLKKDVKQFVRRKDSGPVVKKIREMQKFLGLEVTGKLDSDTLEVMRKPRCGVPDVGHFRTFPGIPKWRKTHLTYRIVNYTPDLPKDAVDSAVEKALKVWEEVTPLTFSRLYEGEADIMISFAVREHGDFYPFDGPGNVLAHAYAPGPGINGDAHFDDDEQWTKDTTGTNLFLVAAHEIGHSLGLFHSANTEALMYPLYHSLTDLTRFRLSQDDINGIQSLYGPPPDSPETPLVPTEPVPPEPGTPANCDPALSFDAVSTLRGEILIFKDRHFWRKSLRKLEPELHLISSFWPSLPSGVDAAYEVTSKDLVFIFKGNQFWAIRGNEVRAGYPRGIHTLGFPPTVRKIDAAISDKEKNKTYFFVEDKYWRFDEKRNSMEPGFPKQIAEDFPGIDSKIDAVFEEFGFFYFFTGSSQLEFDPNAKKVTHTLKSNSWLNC
PROPERTY_MEASURED: IC50 (nM)

O=S(=O)(CCCS)c1ccc(Oc2ccccc2)cc1 ... 500
